system: CP194; test: qHTS profiling for inhibitors of Plasmodium falciparum proliferation (AID 504749); further: nearly all actives have a fitted effect of over 60% in size; details: P. falciparum in erythrocytes, SYBR Green DNA, 72 h; series mostly up to 12.8 µM
Inconclusive results are not listed. Active and inactive are the calls of the source. The call rests on the fitted dose curve; in most records, active means well fitted inhibition curve with a large enough effect; inconclusive means small, poorly fitted or top-dose-only effect; inactive means flat fitted curve, though single readings scatter.
Give one outcome, nothing more. List: label 1 = active, label 0 = inactive

Completed entries (count: 10):
>>> class_name("CCN1C(=O)N[C@@H](c2ccccc2)C1=O")
"label 0"
>>> class_name("CC(C)(C)NC[C@H](O)c1cc(O)cc(O)c1")
"label 0"
>>> class_name("COc1c(O)cc2c(c1O)[C@@H]1O[C@@H](CO)[C@@H](O)[C@@H](O)[C@@H]1OC2=O")
"label 0"
>>> class_name("O=C(c1ccccc1)c1ccc2n1CC[C@H]2C(=O)O")
"label 0"
>>> class_name("C[C@@H](CCc1ccccc1)NC[C@H](O)c1ccc(O)c(C(N)=O)c1")
"label 0"
>>> class_name("O=C(O)/C=C\\c1ccc(Cn2ccnc2)cc1")
"label 0"
>>> class_name("C[C@@H](C(=O)O)c1ccc(C(=O)c2cccs2)cc1")
"label 0"
>>> class_name("CN(C)[C@H]1C(=O)C(C(=O)NCN2CCCC2)=C(O)[C@]2(O)C(=O)C3=C(O)c4c(O)cccc4[C@@](C)(O)[C@H]3C[C@@H]12")
"label 0"
>>> class_name("CC(=O)O[C@@H](C)C[N+](C)(C)C")
"label 0"
>>> class_name("C[C@@H]1COc2c(N3CCN(C)CC3)c(F)cc3c(=O)c(C(=O)O)cn1c23")
"label 0"

Write down the call the test reported for this compound. Item: CN[C@@H](CC(C)C)C(=O)N[C@@H]1C(=O)N[C@H](CC(N)=O)C(=O)N[C@@H]2C(=O)N[C@H]3C(=O)N[C@H](C(=O)N[C@H](C(=O)O)c4cc(O)cc(O)c4-c4cc3ccc4O)[C@H](O)c3ccc(c(Cl)c3)Oc3cc2cc(c3O[C@H]2O[C@@H](CO)[C@@H](O)[C@@H](O)[C@@H]2O[C@@H]2C[C@](C)(N)[C@H](O)[C@H](C)O2)Oc2ccc(cc2Cl)[C@@H]1O label 0

Write down the call the test reported for this compound. Item: C[C@@H]1CCC[C@H](C)N1NC(=O)c1ccc(Cl)c(S(N)(=O)=O)c1 label 0

Write down the call the test reported for this compound. Item: CN[C@@H]1[C@H](O[C@@H]2O[C@H](CO)[C@@H](N)[C@H](O)[C@@H]2O)O[C@H]2C[C@@H](N)[C@@H](O[C@H]3[C@@H](O)[C@H](O)[C@H](N)C[C@@H]3N)O[C@H]2[C@H]1O label 0

Write down the call the test reported for this compound. Item: CCN(CC)CCC[C@H](C)Nc1c2ccc(Cl)cc2nc2ccc(OC)cc12 label 1

Write down the call the test reported for this compound. Item: CCn1cc(C(=O)O)c(=O)c2cc(F)c(N3CCN[C@@H](C)C3)c(F)c21 label 0

Write down the call the test reported for this compound. Item: Cn1c(=O)c2c(ncn2C[C@@H](O)CO)n(C)c1=O label 0

Write down the call the test reported for this compound. Item: NC(N)=NC[C@@H]1COC2(CCCCC2)O1 label 0

Write down the call the test reported for this compound. Item: CCN[C@@H]1C[C@H](C)S(=O)(=O)c2sc(S(N)(=O)=O)cc21 label 0

Write down the call the test reported for this compound. Item: CN1[C@@H]2CC[C@H]1CC(OC(=O)[C@@H](O)c1ccccc1)C2 (some centres undefined) label 0

###

target: Mitogen-activated protein kinase 10 (Mus musculus); assay: JNK3 AlphaScreen Assay (AID 530); details: JNK3 lysate, c-Jun phosphorylation; series mostly up to 57.1 µM;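 further: kinase came from lysate of stimulated human HepG2 cells; signal reports phosphorylation of biotinylated GST-cJun 1-79 at Ser73 with 10 µM ATP; on the % scale 0 is the no-effect control and ±100 the full control effect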
Inconclusive results are not listed. Calls of active or inactive are those of the source. Calls follow the shape of the dose curve; as a rule, active = well fitted curve in either direction with a large enough effect (not every such curve was filed as active); inconclusive = small, poorly fitted or top-dose-only effect, or another doubt; inactive = flat fitted curve, though single readings scatter.
OBSERVED PROPERTY: outcome

Recorded outcome, per entry:
>>> result("CS(=O)(=O)N1CCC2(CC1)CN(c1ccccn1)C2")
"inactive"
>>> result("COc1cccc(-c2cncnc2NCc2cccc(C)c2)c1")
"inactive"
>>> result("CCn1cc(C(=O)O)c(=O)c2cc(F)c(N3CCN[C@@H](C)C3)c(F)c21")
"inactive"
>>> result("CC(C)CN1CCC2(CC1)CCN(C(=O)c1cnccn1)CC2")
"inactive"
>>> result("O=c1c(-c2ccccc2)nc2cnc(Nc3ccccc3)nc2n1C[C@H]1CCCO1")
"inactive"

State its outcome on Mitogen-activated protein kinase 10 (Mus musculus): O=C(Nc1cccc(F)c1)N1CCCC2(CCN(C(=O)c3ccco3)CC2)C1 inactive

State its outcome on Mitogen-activated protein kinase 10 (Mus musculus): COc1ccc2[nH]cc(CCNc3ccnc(-c4cccc(C#N)c4)n3)c2c1 inactive

State its outcome on Mitogen-activated protein kinase 10 (Mus musculus): NC(=O)c1ccccc1-c1nc(-n2ccnc2)c2ccccc2n1 inactive

State its outcome on Mitogen-activated protein kinase 10 (Mus musculus): COc1cccc(Nc2ncc3nc(C)c(=O)n(CCC#N)c3n2)c1 inactive

State its outcome on Mitogen-activated protein kinase 10 (Mus musculus): c1ccc(CNc2nc(-c3ccoc3)nc3ccccc23)cc1 inactive

State its outcome on Mitogen-activated protein kinase 10 (Mus musculus): CN(C)C(=O)c1ccc(-c2cncnc2NCc2cccs2)cc1 inactive

###

assay: qHTS Assay for Lipid Storage Modulators (AID 1519); conditions: Drosophila S3 cells, BODIPY lipid droplet/cell ratio, laser cytometry; measured here: lipid channel max response; cells loaded with oleic acid
Records with an inconclusive call do not appear.
OBSERVED PROPERTY: max response (%)
Write the answer as a number in %, unit excluded.

Recorded max response, per entry:
>>> quantitative_readout("COc1ccc(C(=O)N2CCC[C@@]3(CCN(C(=O)NC(C)C)C3)C2)cc1")
15.8
>>> quantitative_readout("O=C(c1ccncc1)N1CCC[C@@]2(CCN(c3ccncc3)C2)C1")
15

// max response lookup, key: CC12CC[C@@H]3c4ccc(OS(=O)(=O)O)cc4CC[C@H]3C1CCC2=O (stereo not given in full) -17.7

// max response lookup, key: COC(=O)c1c(C)cc(OC(=O)c2c(C)cc(O)c(C=O)c2O)c(C)c1O -19

// max response lookup, key: O=C(c1ccco1)N1CCC2(CC1)CCN(C(c1ccccc1)c1ccccc1)CC2 15

// max response lookup, key: COc1ncc2nc(-c3ccc(Cl)cc3)c(=O)n(-c3ccccc3)c2n1 16.2

// max response lookup, key: O=C(c1cc(C(F)(F)F)cc(C(F)(F)F)c1)N1CCC2(CC1)CCN(c1ccccc1)CC2 0.292

// max response lookup, key: O=c1cnc2cnc(N3CCNCC3)nc2n1C1CC1 7.84

// max response lookup, key: O=c1c(CCc2ccccc2)nc2cnc(N3CCOCC3)nc2n1C[C@H]1CCCO1 -6.55

// max response lookup, key: COc1ccc(-n2c(=O)c(-c3ccc(F)cc3)nc3cnc(N4CCNCC4)nc32)cc1 12.6

###

molecular target: Glucocorticoid receptor (Homo sapiens); assay: GR-EFC Redistribution (AID 451); details: CHO-K1 GR-EFC translocation, beta-gal luminescence, 2 h; further: potency means the concentration at half of the fitted maximal effect
Calls of active or inactive are those of the source. Calls follow the shape of the full dose curve.
OBSERVED PROPERTY: Potency

Recorded Potency, per entry:
>>> result("O=S(=O)(c1ccccc1)N1CCC2(CCCN(c3ccncc3)C2)CC1")
"> 46 µM (inactive)"
>>> result("CC(C)NC(=O)N1CC[C@@]2(CCCN(S(=O)(=O)c3ccccc3)C2)C1")
"> 46 µM (inactive)"
>>> result("COc1ccc(-c2nc3cnc(Oc4ccccc4)nc3n(Cc3cccs3)c2=O)cc1")
"> 46 µM (inactive)"
>>> result("N#Cc1cccc(NC(=O)N2CC[C@@]3(CCCN(C(=O)c4cnccn4)C3)C2)c1")
"> 46 µM (inactive)"
>>> result("CN(C)Cc1ccccc1-c1ccc2ncnc(NC3CC3)c2c1")
"> 46 µM (inactive)"

// Potency lookup, key: CS(=O)(=O)N1CCC[C@@]2(CCN(C(=O)Nc3cccc(C#N)c3)C2)C1 > 46 µM (inactive)

// Potency lookup, key: O=c1c(-c2ccc(F)cc2)nc2cnc(Nc3ccccc3)nc2n1C1CC1 > 46 µM (inactive)

// Potency lookup, key: CNc1nc(-c2ccccc2C(F)(F)F)nc2ccccc12 > 46 µM (inactive)

###

Biological target: alpha-glucosidase (Oryza sativa, rice)
Assay: Counterscreen for Glucocerebrosidase Inhibitors: qHTS Assay for Rice alpha-Glucosidase at pH 5.0 (AID 997);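 further: 0% = full activity with enzyme and -100% = basal without enzyme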
Settings: rice alpha-glucosidase enzyme activity; series mostly up to 76.9 µM
Description: NIH Chemical Genomics Center [NCGC] NIH Molecular Libraries Screening Centers Network [MLSCN] PI Name: Zheng, Wei [NIH] […] This is a fluorogenic enzyme assay with 4-methylumbelliferyl-alpha-D-pyranoside as the substrate and rice alpha-glucosidase as the enzyme preparation. […] 4-methyllumbelliferone, can be excited at 365 nm and emits at 440 nm which can be detected by a standard fluorescence plate reader. […] (6) Detect the assay plate in a ViewLux plate reader (PerkinElmer) with Ex=365 nm and Em=440nm. […]
Calls of active or inactive are those of the source. The call rests on the fitted dose curve; in most records, active means well fitted curve in the direction sought with a large enough effect; inconclusive means small, poorly fitted or top-dose-only effect, or another doubt; inactive means no such curve, though single readings can be large or run the other way.
OBSERVED PROPERTY: outcome

>>> result("CC(=O)OCC1=C(C(=O)O)N2C(=O)[C@@H](NC(=O)CSc3ccncc3)[C@@H]2SC1")
"inactive"
>>> result("c1ccc([C@@H]2CN3CCSC3=N2)cc1")
"inactive"
>>> result("CC(=O)O[C@]1(C(C)=O)CC[C@@H]2[C@@H]3C=C(Cl)C4=CC(=O)[C@H]5C[C@@H]5[C@]4(C)[C@H]3CC[C@]21C")
"inactive"
>>> result("COc1cc(=O)n(C)c2c(OC[C@@H](O)C(C)(C)O)cccc12")
"inactive"
>>> result("CN(C)CCO[C@](C)(c1ccccc1)c1ccccn1")
"inactive"
>>> result("NC(=O)c1cc[n+](CC2=C(C(=O)O)N3C(=O)[C@@H](NC(=O)[C@H](c4ccccc4)S(=O)(=O)[O-])[C@@H]3SC2)cc1")
"inactive"
>>> result("C[C@@H](COc1ccccc1)N(CCCl)Cc1ccccc1")
"inactive"
>>> result("C[C@@H]1c2cccc(O)c2C(O)=C2C(=O)[C@@]3(O)C(O)=C(C(N)=O)C(=O)[C@@H](N(C)C)[C@@H]3[C@@H](O)[C@@H]21")
"inactive"

Now look at this entry.
// outcome lookup, key: O[C@@](CCN1CCCCC1)(c1ccccc1)C1CCCCC1 inactive
